From: the Immune Epitope Database (IEDB)

- MEASURED_ON: HLA-A*68:02
- PROCEDURE_SUMMARY: IEDB peptide-MHC binding, purified MHC/competitive/radioactivity; bounds were set here for any values at or beyond the usual limits of such assays
- MEASUREMENT_CONTEXT: source organism: Vaccinia virus WR
log10 IC50 by entry:
Note: values are log10 of IC50 expressed in µM.

{"columns": ["SEQUENCE_TEXT", "log10 IC50"],
 "data": [
  ["ETMYLTMKA", -3.19],
  ["FVATFRDMLL", -0.39],
  ["SMYVIPDELI", 0.24]
]}

Query: Which measured log10 IC50 value corresponds to TIFDIVSKCI ?
Result: -0.96

Query: What about FVNFVKDMI ?
Result: -3.21

Query: What about IVAAVIIMA ?
Result: -1.62

Query: What about NVSGVPHSV ?
Result: -2.55

Query: What about KASTISWMM ?
Result: 0.47

Query: What about IAGGVCYYLL ?
Result: -0.57

Query: What about KTVKNVDII ?
Result: 0.07

Query: What about FLLPLTSLVI ?
Result: 0.01
